These measurements were taken from patent US20110251230A1.

- Test system: NSC34 mouse motor neuronal cells
- assayProcedure: NSC34 oxidative stress assay (serum withdrawal, DCF)
- conditionParameters: NSC34
Counter-ions that a name gives are not always drawn.
Recorded Lowest dose with toxicity values for a group of compounds are listed next.

{"compound": "C=C1CC[C@@H]2[C@](C)(CO)[C@H](O)CC[C@@]2(C)[C@@H]1C/C=C1/C(=O)OC[C@H]1O [Andrographolide]", "Lowest dose with toxicity, µM": 10}
{"compound": "CN1CCc2cccc3c2[C@H]1Cc1ccc(O)c(O)c1-3 [Apomorphine hydrochloride, reference compound]", "Lowest dose with toxicity, µM": 10}
{"compound": "Cc1[nH]c2ccccc2c1CN(C)C [2 methyl gramine]", "Lowest dose with toxicity, µM": 3}
{"compound": "COc1cc(O)cc(OC)c1OC [Antiarol]", "Lowest dose with toxicity, µM": 10}
{"compound": "ClC1=C(Cl)C2(Cl)C3C(Cl)C(Cl)CC3C1(Cl)C2(Cl)Cl (centres unmarked) [Chlordane]", "Lowest dose with toxicity, µM": 3}
{"compound": "OC[C@H]1O[C@@H](n2cnc3c(NCc4ccco4)ncnc32)[C@H](O)[C@@H]1O [kinetin riboside]", "Lowest dose with toxicity, µM": 3}
{"compound": "CC(=O)O[C@@H]1C[C@H]2C(C)(C)C(=O)C=C[C@]2(C)[C@H]2CC[C@]3(C)C(=CC(=O)O[C@H]3c3ccoc3)[C@@]21C [deoxygedunin]", "Lowest dose with toxicity, µM": 10}

---

- Test system: NRF2-ARE pathway in the CHO 4× ARE-TK cell line
- assayProcedure: ARE reporter assay in CHO 4×ARE-TK-GFP cell line (GFP induction, EthD1 toxicity)
- conditionParameters: Cricetulus griseus, 24 h, read-out: Average fold GFP induction at maximal response
quantity: maximal fold induction

{"compound": "CC1(C)C(=O)C=C[C@]2(C)[C@H]3CC[C@@]4(C)[C@H](c5ccoc5)OC(=O)[C@H]5O[C@]54[C@]3(C)[C@H](O)C[C@@H]12 [Deacetylgedunin]", "experimentalTarget": "NRF2-ARE pathway in the CHO 4× ARE-TK cell line", "assayValue": 3.05}
{"compound": "CC(=O)Oc1ccc(O)cc1 [4 acetoxyphenol]", "experimentalTarget": "NRF2-ARE pathway in the CHO 4× ARE-TK cell line", "assayValue": 2.78}
{"compound": "ClC1=C(Cl)C2(Cl)C3C(Cl)C(Cl)CC3C1(Cl)C2(Cl)Cl (centres unmarked) [Chlordane]", "experimentalTarget": "NRF2-ARE pathway in the CHO 4× ARE-TK cell line", "assayValue": 1.56}
{"compound": "CC1=CC(=O)C(C(C)C)=CC1=O [Thymoquinone]", "experimentalTarget": "NRF2-ARE pathway in the CHO 4× ARE-TK cell line", "assayValue": 2.58}
{"compound": "COc1cc(O)cc(OC)c1OC [Antiarol]", "experimentalTarget": "NRF2-ARE pathway in the CHO 4× ARE-TK cell line", "assayValue": 1.64}

---

- Tested on: C6 (rat) astrocytic line
- assayProcedure: C6 oxidative stress assay (serum withdrawal, DCF)
- conditionParameters: C6
Structures can show the parent of a compound that is named as a salt.

{"compound": "CC(=O)CCC(=O)O [levulinc acid, Levulinic acid]", "Lowest dose with toxicity": "none"}
{"compound": "Oc1ccc(O)cc1 [hydroquinone, reference compound]", "Lowest dose with toxicity": "none"}
{"compound": "Cc1cc(O)c(C)c(O)c1C(=O)O [3 methylorsellinic acid]", "Lowest dose with toxicity": "none"}
{"compound": "S=C=NCc1ccccc1 [Benzyl Isothiocyanate]", "Lowest dose with toxicity": "none"}
{"compound": "CC(=O)O[C@@H]1C[C@H]2C(C)(C)C(=O)C=C[C@]2(C)[C@H]2CC[C@]3(C)C(=CC(=O)O[C@H]3c3ccoc3)[C@@]21C [deoxygedunin]", "Lowest dose with toxicity": "none"}
{"compound": "Cc1[nH]c2ccccc2c1CN(C)C [2 methyl gramine]", "Lowest dose with toxicity": "none"}
{"compound": "C=C(C)/C=C1/C=CC(=O)C(C)=C1 [Retusoquinone]", "Lowest dose with toxicity": "none"}
{"compound": "COc1cc(O)cc(OC)c1OC [Antiarol]", "Lowest dose with toxicity": "10 µM"}
{"compound": "CC1=C2C(=CO[C@H](C)[C@H]2C)C(O)=C(C(=O)O)C1=O [Citrinin]", "Lowest dose with toxicity": "none"}
{"compound": "C=C1CC[C@@H]2[C@](C)(CO)[C@H](O)CC[C@@]2(C)[C@@H]1C/C=C1/C(=O)OC[C@H]1O [Andrographolide]", "Lowest dose with toxicity": "10 µM"}
{"compound": "ClC1=C(Cl)C2(Cl)C3C(Cl)C(Cl)CC3C1(Cl)C2(Cl)Cl (centres unmarked) [Chlordane]", "Lowest dose with toxicity": "none"}
{"compound": "O=C(/C=C/c1ccc(O)cc1)c1ccc(O)cc1O [Isoliquintigenin, Isoliquiritigenin]", "Lowest dose with toxicity": "none"}
{"compound": "COc1cc(O)c(C)c(O)c1 [2,6-dihydroxy-4-methoxytoluene]", "Lowest dose with toxicity": "10 µM"}
{"compound": "CCc1cccc(CC)c1N(COC)C(=O)CCl [Alachlor]", "Lowest dose with toxicity": "none"}
{"compound": "C=CC(C1=CC(=O)C(OC)=CC1=O)c1ccccc1 (centres unmarked) [4-Methoxydalbergione]", "Lowest dose with toxicity": "none"}
{"compound": "COc1ccc2c(c1)OC/C(=C/c1ccc(OC)c(OC)c1)C2=O [sappanone A trimethyl ether]", "Lowest dose with toxicity": "none"}
{"compound": "CN1CCc2cccc3c2[C@H]1Cc1ccc(O)c(O)c1-3 [Apomorphine hydrochloride, reference compound]", "Lowest dose with toxicity": "none"}
